Reference source for all entries: PubChem BioAssay (EPA / NIEHS)

- Assayed Target: rat Histamine Receptor (H3), Hrh3 (gene 85268) (UniProt Q9QYN8)
- Sequence (Q9QYN8 whole entry, looked up): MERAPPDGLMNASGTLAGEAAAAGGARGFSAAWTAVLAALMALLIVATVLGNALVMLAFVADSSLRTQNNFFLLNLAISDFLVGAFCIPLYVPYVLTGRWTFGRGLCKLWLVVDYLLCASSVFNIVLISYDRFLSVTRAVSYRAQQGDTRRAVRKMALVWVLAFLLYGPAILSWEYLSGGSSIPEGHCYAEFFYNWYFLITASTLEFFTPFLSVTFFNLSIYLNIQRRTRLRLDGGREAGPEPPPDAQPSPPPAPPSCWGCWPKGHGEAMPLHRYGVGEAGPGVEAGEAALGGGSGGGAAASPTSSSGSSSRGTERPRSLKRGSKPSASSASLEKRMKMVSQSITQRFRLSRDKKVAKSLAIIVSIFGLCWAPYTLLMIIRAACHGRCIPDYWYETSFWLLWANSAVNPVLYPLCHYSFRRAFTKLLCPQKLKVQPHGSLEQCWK
- Assay Protocol: NVS_GPCR_rH3: NovaScreen (NVS) G Protein-Coupled Receptor Assay for rat Histamine Receptor (H3) (AID 2283303)
Records with an inconclusive call do not appear. The source made the active and inactive calls. How the source made its calls: active means hit-call score of the fitted dose curve at least 0.9, where 1 is the maximum; inconclusive means response in the unintended direction; inactive means score below 0.9.
Choose one outcome from this list and give only that: active, inactive

# input Per the records of this test, what outcome belongs to `CCCN(C1CCN(C(=O)C2CCNCC2)CC1)[C@@H]1CCc2ccc(OC)cc2C1` ?
# output active

# input How about `Cc1[nH]cnc1C[C@H]1CCc2c(C)c3ccccc3n2C1=O` ?
# output inactive

# input Cool, now `COCCOc1cc2cc(C(=O)NC3CCN(C(C)C)CC3)n(CC(=O)Nc3ccc(Cl)cn3)c2cn1`
# output active

# input Would you kindly repeat that for `Nc1ccc(Nc2ccccc2)cc1` ?
# output active

# input Likewise for `CN(C)c1ccc(N=NS(=O)(=O)O)cc1` ?
# output active

Further cases:
# input Hi, sorry to bother you, what did the test record for CCOC(=O)c1ccc(C2CCC(NC[C@H](O)COc3ccc(O)c(NS(C)(=O)=O)c3)CC2)cc1 (stereo partly specified) ?
# output active
